- assayedSystem: PI3Kδ (recombinant GST-tagged PIK3CD co-expressed with PIK3R1, p85α) (Homo sapiens)
- Construct: The protein is full length and co-expressed with untagged PIK3R1; GST
- Sequence (O00329 whole entry): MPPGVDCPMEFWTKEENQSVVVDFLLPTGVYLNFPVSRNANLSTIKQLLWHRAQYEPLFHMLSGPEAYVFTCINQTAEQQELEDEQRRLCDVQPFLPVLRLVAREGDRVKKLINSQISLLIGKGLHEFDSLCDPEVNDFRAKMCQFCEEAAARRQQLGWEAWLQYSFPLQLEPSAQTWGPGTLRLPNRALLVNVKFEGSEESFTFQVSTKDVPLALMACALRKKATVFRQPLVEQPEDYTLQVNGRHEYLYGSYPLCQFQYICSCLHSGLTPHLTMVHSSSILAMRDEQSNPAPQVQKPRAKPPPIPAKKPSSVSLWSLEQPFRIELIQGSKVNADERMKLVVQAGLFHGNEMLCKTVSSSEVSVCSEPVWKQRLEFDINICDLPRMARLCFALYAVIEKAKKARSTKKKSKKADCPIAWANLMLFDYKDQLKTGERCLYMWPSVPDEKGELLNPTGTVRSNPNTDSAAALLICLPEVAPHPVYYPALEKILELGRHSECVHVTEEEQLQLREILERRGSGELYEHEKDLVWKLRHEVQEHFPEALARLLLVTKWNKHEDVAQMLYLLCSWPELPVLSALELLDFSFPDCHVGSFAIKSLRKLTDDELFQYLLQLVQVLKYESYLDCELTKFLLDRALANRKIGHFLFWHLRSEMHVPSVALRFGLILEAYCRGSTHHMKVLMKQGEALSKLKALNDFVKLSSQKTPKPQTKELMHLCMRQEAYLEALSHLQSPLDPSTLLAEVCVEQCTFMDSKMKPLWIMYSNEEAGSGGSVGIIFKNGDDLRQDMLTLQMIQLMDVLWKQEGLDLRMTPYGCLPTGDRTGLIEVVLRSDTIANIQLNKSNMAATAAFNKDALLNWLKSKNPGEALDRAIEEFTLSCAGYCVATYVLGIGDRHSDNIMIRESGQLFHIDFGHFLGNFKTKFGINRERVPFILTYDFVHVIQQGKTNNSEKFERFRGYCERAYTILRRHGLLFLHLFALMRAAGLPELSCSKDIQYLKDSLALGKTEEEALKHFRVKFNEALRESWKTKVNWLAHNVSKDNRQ
- Sequence (P27986 whole entry partner): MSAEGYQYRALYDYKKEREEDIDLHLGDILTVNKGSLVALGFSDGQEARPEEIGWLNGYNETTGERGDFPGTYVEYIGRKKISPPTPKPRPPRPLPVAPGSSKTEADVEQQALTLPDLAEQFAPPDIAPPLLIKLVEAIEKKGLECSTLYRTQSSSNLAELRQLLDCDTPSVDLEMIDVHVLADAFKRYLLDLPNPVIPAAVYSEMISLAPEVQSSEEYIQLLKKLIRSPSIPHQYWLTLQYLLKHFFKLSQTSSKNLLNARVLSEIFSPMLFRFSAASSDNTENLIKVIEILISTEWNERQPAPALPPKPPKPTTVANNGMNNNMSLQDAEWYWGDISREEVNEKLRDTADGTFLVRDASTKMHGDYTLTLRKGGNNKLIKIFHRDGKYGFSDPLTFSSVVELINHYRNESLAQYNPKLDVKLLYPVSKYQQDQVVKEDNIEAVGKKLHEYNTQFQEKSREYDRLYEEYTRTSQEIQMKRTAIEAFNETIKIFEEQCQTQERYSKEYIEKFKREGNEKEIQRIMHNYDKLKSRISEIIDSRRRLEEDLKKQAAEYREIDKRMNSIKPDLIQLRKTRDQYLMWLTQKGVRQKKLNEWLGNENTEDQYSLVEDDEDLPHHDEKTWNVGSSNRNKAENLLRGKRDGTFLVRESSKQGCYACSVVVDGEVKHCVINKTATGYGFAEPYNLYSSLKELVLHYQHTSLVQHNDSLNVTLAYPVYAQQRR
- methodNotes: PI3Kδ inhibition, modified PIK3CD Adapta TR-FRET kinase assay
- experimentalConditions: 2 μM ATP, 50 μM PIP2, 1 hour at room temperature, pIC50 = -log(IC50 in M)
pIC50: −log10 of the molar value.
observedProperty: pIC50

Consider the reported pIC50 for these molecules:
molecule | pIC50
C[C@@H](Nc1nc(N)nc(N)c1C#N)c1nc2ccn(C)c2cc1N1CCOCC1 [Example 48] | 7.10
C[C@H](Nc1nc(N)nc(N)c1Cl)c1nc2ccn(C)c2cc1N1CCOCC1 [Example 28] | 6.90
Cc1nc(N)nc(N[C@@H](C)c2nc3ccn(C)c3cc2-c2ccnn2C)c1C#N [Example 3] | 8.80
C[C@H](Nc1nc(N)nc2[nH]cnc12)c1nc2ccn(C)c2cc1N1CCOCC1 [Example 27] | 8.00
C[C@H](Nc1nc(N)ncc1Cl)c1nc2ccn(C)c2cc1-c1ccnn1C [Example 1] | 6.90

[1] C[C@H](Nc1nc(N)ncc1C#N)c1nc2ccn(C)c2cc1-c1ccnn1C [Example 4]
[2] C[C@H](Nc1nc(N)ncc1F)c1nc2ccn(C)c2cc1-c1ccnn1C [Example 7]
Exercise: Which has the smaller recorded pIC50, 1 or 2 ? Answer format: the label of the selected item.
Solution: 2

[I] C[C@H](Nc1nc(N)nc(N)c1C#N)c1nc2ccn(C)c2cc1-c1ccnn1C1CC1 [Example 35]
[II] C[C@H](Nc1nc(N)ncc1Cl)c1nc2ccn(C)c2cc1N1CCOCC1 [Example 5]
[III] C[C@H](Nc1nc(O)nc(N)c1C#N)c1nc2ccn(C)c2cc1-c1ccnn1C [Example 11]
[IV] C[C@H](Nc1nc(N)nc2[nH]ncc12)c1nc2ccn(C)c2cc1-c1ccnn1C [Example 18]
Exercise: Rank ascending by pIC50. List each label, following the requested order.
Solution: III, IV, II, I
(III: 5.90, IV: 6.30, II: 6.90, I: 8.60)

[1] C[C@H](Nc1nc(N)nc(N)c1C#N)c1nc2ccn(C)c2cc1-c1ccnn1C(F)F [Example 32]
[2] C[C@@H](Nc1nc(N)nc(N)c1C#N)c1nc2ccn(C)c2cc1N1CC(F)(F)C1 [Example 43]
Exercise: Hi there! Just curious which has the higher pIC50 between 1 and 2 . Answer format: the label of the selected item.
Solution: 1
(1: 8.80, 2: 6.00)

* * *

- assayedSystem: PI3Kδ (recombinant GST-tagged PIK3CD co-expressed with PIK3R1, p85α) (Homo sapiens)
- Construct: The protein is full length and co-expressed with untagged PIK3R1; GST
- methodNotes: PI3Kδ inhibition, modified PIK3CD Adapta TR-FRET kinase assay
- experimentalConditions: 2 μM ATP, 50 μM PIP2, 1 hour at room temperature, pIC50 = -log(IC50 in M)
observedProperty: IC50

compound | assayedSystem | IC50
Cc1nc(N)nc(N[C@@H](C)c2nc3ccn(C)c3cc2-c2ccnc(O)c2)c1C#N | PI3Kδ (recombinant GST-tagged PIK3CD co-expressed with PIK3R1, p85α) (Homo sapiens) | < 1 nM
C[C@H](Nc1nc(N)nc(N)c1C#N)c1nc2ccn(C)c2cc1N1CCOCC1 [Example 10] | PI3Kδ (recombinant GST-tagged PIK3CD co-expressed with PIK3R1, p85α) (Homo sapiens) | < 2.51 nM
Cc1noc(C)c1-c1cc2c(ccn2C)nc1[C@H](C)Nc1nc(N)nc(N)c1C#N | PI3Kδ (recombinant GST-tagged PIK3CD co-expressed with PIK3R1, p85α) (Homo sapiens) | < 1 nM

Exercise: Give a short answer stating reported IC50 for C[C@H](Nc1nc(N)nc(N)c1C#N)c1nc2ccn(C)c2cc1C1CCOCC1 .
Solution: < 2 nM

Exercise: Give a short answer stating reported IC50 for Cc1nc(N)nc(N[C@@H](C)c2nc3ccn(C)c3cc2-c2ccccn2)c1C#N .
Solution: < 1 nM

Exercise: Give a short answer stating reported IC50 for C[C@H](Nc1nc(N)nc(N)c1C#N)c1nc2ccn(C)c2cc1N1CCOCC1 [Example 29] .
Solution: < 1.26 nM

Exercise: Give a short answer stating reported IC50 for C[C@H](Nc1nc(N)nc(N)c1C#N)c1nc2ccn(C)c2cc1-c1ccnc(O)c1 .
Solution: < 1 nM
